# tested target: T1, HLA-A*24:02 (human)
# T1 construct: whole, on cells; Empty class I molecule on T2-A24 cells
# procedure text: T2-A24 MHC class I stabilization, flow cytometry, anti-HLA-A24 17A10-FITC, peptide 100 ug/mL;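 further: peptide exposure stabilizes otherwise empty class I molecules on T2 cell surfaces, so surface class I level reflects how strongly the peptide binds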
Measured MFI (solvent ratio) values are reported for all entries that follow.

Please review the entries below; each comes with its answer.
LLLNHGAARI [As310_10]: 1.2 ratio to solvent
KLVKRNFLEAL [As15_11]: 1 ratio to solvent

Proceed to the following item.
### Prompt Look up MFI (solvent ratio) for this binder: RIYPPQFHKV [As318_10]
### Response 3.6 ratio to solvent

These data points were gathered from patent US20170360911A1.
